System: HepG2
experiment_summary: Induction of apoptosis in human HepG2 cells assessed as viable cells at 10 uM measured after 48 hrs by Annexin V-FITC/propidium iodide staining based flow cytometry (reference value: 96.84%)
Assay type: functional
measurement_conditions: read-out: Activity
property: viability at 10 µM (%)
One number for each entry, in %.

Example cases with answers are listed next.
Cc1cc(OCCCOc2ccc(C[C@H](NC(=O)OC(C)(C)C)C(=O)NS(=O)(=O)c3ccc(NCCCc4ccccc4)c([N+](=O)[O-])c3)cc2)cc(C)c1Cl 88.6
Cc1cc(OCCOc2ccc(C[C@H](NC(=O)c3ccccc3)C(=O)NS(=O)(=O)c3ccc(NCCCc4ccccc4)c([N+](=O)[O-])c3)cc2)cc(C)c1Cl 82.3
Cc1ccc(CC(=O)N[C@@H](Cc2cc(Br)c(OCCOc3cccc4ccccc34)c(Br)c2)C(=O)NS(=O)(=O)c2ccc(NCCCc3ccccc3)c([N+](=O)[O-])c2)cc1 85.9

Read the next record carefully.
Case O=C(O)CSc1cc(NS(=O)(=O)c2ccc(Br)cc2)c2ccccc2c1O , HepG2, viability at 10 µM recorded as 76.4
